Test system: genotype 4a stable HCV replicon (ED43) in Huh-7-derived cells
Test: Stable subgenomic HCV replicon, genotype 4a, Renilla luciferase
Format: cell-based
Conditions: Hepatitis C virus, 72 h, read-out: EC50 4A RLUC
Experimental: Antiviral potency (EC50) was determined in both stable subgenomic HCV replicon cell lines and transient-transfected HCV replicon cells. […] Stable subgenomic HCV replicons for genotype 1a, 1b, 2a, 3a, and 4a were established in Huh-7-derived cells as described by Lohmann et al (Lohmann V, Korner F, Koch J, et al Replication of subgenomic hepatitis C virus RNAs in a hepatoma cell line. Science 1999; 285:119-3). […] Luciferase activity was measured as a marker for intracellular HCV replication levels. […]
EC50 strictly under 4 nM means YES; at 4 nM or over means NO.

As a guide, the following entries are already answered.
## Input Problem: For the molecule `COc1ccc2nc3c(nc2c1)O[C@@H]1C[C@@H](C(=O)N[C@]2(C(=O)NS(=O)(=O)C4(C)CC4)C[C@H]2C(F)F)N(C1)C(=O)[C@H](C(C)(C)C)NC(=O)O[C@@H]1C[C@@H]2C[C@@H]2[C@H]1CCCCC3` , is EC50 under 4 nM?
## Output YES

## Input Problem: For the molecule `COc1ccc2nc3c(nc2c1)O[C@@H]1C[C@@H](C(=O)N[C@]2(C(=O)NS(=O)(=O)C4CC4)C[C@H]2C(F)F)N(C1)C(=O)[C@H](C(C)(C)C)NC(=O)O[C@H]1[C@@H]2CC[C@@H](C2)[C@@H]1CCCCC3` , is EC50 under 4 nM?
## Output NO

## Input Problem: For the molecule `COc1ccc2nc3c(nc2c1)O[C@@H]1C[C@@H](C(=O)N[C@]2(C(=O)NS(=O)(=O)C4CC4)C[C@H]2C(F)F)N(C1)C(=O)[C@H](C(C)(C)C)NC(=O)O[C@@H]1C[C@@H]2C[C@@H]2[C@H]1CCCCC3` , is EC50 under 4 nM?
## Output YES

## Input Problem: For the molecule `CC(C)(C)[C@@H]1NC(=O)O[C@@H]2C[C@@H]3C[C@@H]3[C@H]2CCCCC(F)(F)c2nc3ccccc3nc2O[C@@H]2C[C@@H](C(=O)N[C@]3(C(=O)NS(=O)(=O)C4CC4)C[C@H]3C(F)F)N(C2)C1=O` , is EC50 under 4 nM?
## Output NO

## Input Problem: For the molecule `CC(C)(C)[C@@H]1NC(=O)O[C@@H]2C[C@@H]3C[C@@H]3[C@H]2CCCCC(F)(F)c2nc3ccc(OC(F)F)cc3nc2O[C@@H]2C[C@@H](C(=O)N[C@]3(C(=O)NS(=O)(=O)C4CC4)C[C@H]3C(F)F)N(C2)C1=O` , is EC50 under 4 nM?
## Output YES

More entries:
## Input Problem: For the molecule `COc1ccc2nc3c(nc2c1)O[C@@H]1C[C@@H](C(=O)N[C@]2(C(=O)NS(=O)(=O)C4(C)CC4)C[C@H]2C(F)F)N(C1)C(=O)[C@H](C(C)(C)C)NC(=O)O[C@@H]1C[C@@H]2C[C@@H]2[C@H]1CCCCC3(F)F` , is EC50 under 4 nM?
## Output YES

## Input Problem: For the molecule `CC(C)(C)[C@@H]1NC(=O)O[C@@H]2C[C@@H]3C[C@@H]3[C@H]2CCCCCc2nc3ccc(F)cc3nc2O[C@@H]2C[C@@H](C(=O)N[C@]3(C(=O)NS(=O)(=O)C4(C)CC4)C[C@H]3C(F)F)N(C2)C1=O` , is EC50 under 4 nM?
## Output YES

## Input Problem: For the molecule `COc1ccc2nc3c(nc2c1)O[C@@H]1C[C@@H](C(=O)N[C@]2(C(=O)NS(=O)(=O)C4(C)CC4)C[C@H]2CC(F)F)N(C1)C(=O)[C@H](C(C)(C)C)NC(=O)O[C@@H]1C[C@@H]2C[C@@H]2[C@H]1CCCCC3(F)F` , is EC50 under 4 nM?
## Output NO

## Input Problem: For the molecule `CC(C)(C)[C@@H]1NC(=O)O[C@@H]2C[C@@H]3C[C@@H]3[C@H]2CCCCC(F)(F)c2nc3ccccc3nc2O[C@@H]2C[C@@H](C(=O)N[C@]3(C(=O)NS(=O)(=O)C4(C)CC4)C[C@H]3C(F)F)N(C2)C1=O` , is EC50 under 4 nM?
## Output NO

## Input Problem: For the molecule `CC(C)(C)[C@@H]1NC(=O)O[C@@H]2C[C@@H]3C[C@@H]3[C@H]2CCCCCc2nc3ccc(Cl)cc3nc2O[C@@H]2C[C@@H](C(=O)N[C@]3(C(=O)NS(=O)(=O)C4CC4)C[C@H]3C(F)F)N(C2)C1=O` , is EC50 under 4 nM?
## Output YES

## Input Problem: For the molecule `COc1ccc2nc3c(nc2c1)O[C@@H]1C[C@@H](C(=O)N[C@]2(C(=O)NS(=O)(=O)C4(C)CC4)C[C@H]2C(F)F)N(C1)C(=O)[C@H](C(C)(C)C)NC(=O)O[C@H]1[C@H](CCCCC3)C[C@H]2C[C@H]21` , is EC50 under 4 nM?
## Output NO

## Input Problem: For the molecule `COc1ccc2nc3c(nc2c1)O[C@@H]1C[C@@H](C(=O)N[C@]2(C(=O)NS(=O)(=O)C4CC4)C[C@H]2C(F)F)N(C1)C(=O)[C@H](C(C)(C)C)NC(=O)O[C@@H]1[C@H]2CC[C@H](C2)[C@H]1CCCCC3` , is EC50 under 4 nM?
## Output YES

## Input Problem: For the molecule `CC(C)(C)[C@@H]1NC(=O)O[C@@H]2C[C@@H]3C[C@@H]3[C@H]2CCCCCc2nc3ccc(F)cc3nc2O[C@@H]2C[C@@H](C(=O)N[C@]3(C(=O)NS(=O)(=O)C4CC4)C[C@H]3C(F)F)N(C2)C1=O` , is EC50 under 4 nM?
## Output YES

## Input Problem: For the molecule `COc1ccc2nc3c(nc2c1)O[C@@H]1C[C@@H](C(=O)N[C@]2(C(=O)NS(=O)(=O)C4CC4)C[C@H]2C(F)F)N(C1)C(=O)[C@H](C(C)(C)C)NC(=O)O[C@H]1[C@H](CCCCC3)C[C@H]2C[C@H]21` , is EC50 under 4 nM?
## Output NO

Origin of values: patent US9617310B2
